- PROTOCOL DETAILS: hepatitis C replication reporter changes, two-sided – Huh7 cells, luciferase reporter, HCV replication inhibitor project, primary screen (AID 1109);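 note: huh7 hepatoma cells harbouring a luciferase neomycin HCV replicon reporter; luciferase luminescence as measure of HCV replicon replication; test concentration not given here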
- RUN PARAMETERS: Huh7 HCV replicon luciferase reporter, 48 h; higher = more signal
Exercise: state measured z-score for each of the compounds provided.
Numbers only.

CCCC#C[Si](O[C@H](CC)c1cn([C@H](C)c2ccccc2)nn1)(C(C)C)C(C)C ... -0.133
CCCN1C(=O)[C@@]2(Cc3ccccc31)N=C(c1ccc(OCCCO)cc1)O[C@H]2c1ccccc1 ... -2.52
COc1ccc([Si](C)(C)[C@@H]2[C@@H](CC(=O)N3CCC[C@H]3CO)O[C@]3(C(=O)N(Cc4cccc(N5C(=O)COc6ccccc65)c4)c4ccccc43)[C@H]2C)cc1 ... -4.2
CC(=O)NCCCC[C@@H]1NC(=O)[C@@H]2C[C@H](C(=O)NCCCCCN)[C@H](c3ccc(O)cc3)N2C1=O ... -0.663
C=CC[C@@H](OC(=O)Nc1ccc(SC)cc1)c1ccc(O)c(F)c1 ... 0.56

Give me z-score for each of these compounds, listed below.
1. COC(=O)[C@@]1(Cc2ccccc2)[C@H]2c3cc(C(=O)N(C)C)n(Cc4ccc(C)o4)c3C[C@H]2CN1C(=O)c1ccccc1
2. CN(C)C(=O)[C@]1(CCC(=O)OC(C)(C)C)N=C(c2ccc(OCCCO)cc2)O[C@@H]1c1ccccc1CN=[N+]=[N-]
3. C=CCN1Cc2ccccc2[C@@H]2OC(c3ccc(OCCCO)cc3)=N[C@]2(CC=C)C1=O

1: -2.49; 2: -2.19; 3: -1.43

====

- PROTOCOL DETAILS: resazurin metabolic signal in A549 cells – cell-based, resazurin fluorescence, 24 h, PK04 Diversity Set, profiling panel (AID 1171); note: test concentration not given here
- RUN PARAMETERS: A549 viability, higher = more signal, called active from +8 up or from −8 down
For each record, write down the corresponding z-score.
Numbers only.

Report z-score for every entry below.
1. CC(C)C[C@@H]1NC(=O)[C@@H]2C[C@H](C(=O)NCCCCCCN)[C@H](c3cccc(OCCO)c3)N2C1=O
2. C=CCC(OC(C)=O)[C@@H]1[C@@H](N(Cc2cc3ccccc3o2)C(=O)Cc2ccc(F)cc2)c2cc(OCCCO)ccc2N1C(=O)Cc1ccc2ccccc2c1 (some centres not stated)
3. CC(CO)N1C(=O)[C@@H]2[C@H]3C(=O)OCC=C[C@H]3OC23C=CCN(Cn2nnc4ccccc42)C(=O)[C@@H]13 (some centres not stated)
4. CCCC[C@@H](O)C1=C(COC)C[C@H]2C(=O)N(Cc3ccccc3)C(=O)[C@H]2[C@H]1CO

[-0.862, 0.0336, -0.382, 0.0943]

====

- PROTOCOL DETAILS: small molecules captured by biotinylated probe aFGF10 – biochemical, small-molecule microarray, fluorescence 635/667, stem cell growth factor project, primary screen (AID 1071);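 note: score merges 667 nm spot intensity and signal to noise from triplicate slides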
- RUN PARAMETERS: higher = more signal
Assign classes using reported composite z-score values and the ranges zone 1 (below 0.03), zone 2 (0.03 to below 0.5), zone 3 (0.5 or more), please.

Class (by measured composite z-score) for C=CC[C@]1(C(=O)N2CCOCC2)COC(c2ccc(OCCCO)cc2)=N1
zone 1

====

- PROTOCOL DETAILS: S6 kinase pathway phospho-S6 level changes – cell-based, A549, cytoblot, luminescence, serum-stimulated, primary screen (AID 1158);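 note: serum-stimulated A549 lung adenocarcinoma cells; signal is phosphorylated S6 detected by cytoblot immunostaining with HRP secondary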
- RUN PARAMETERS: 5 h, higher = more signal
Would you mind telling me the reported z-score of each entry?
One number for each entry.

Example results:
[N-]=[N+]=NCc1ccccc1[C@H]1OC(c2ccc(OCCCO)cc2)=N[C@@]1(Cc1ccccc1N=[N+]=[N-])C(=O)NCC(O)CO (some centres not stated) ... -0.48
COCCOC(=O)N1C(=O)[C@@]2(c3cc(C#CC4=CCCCC4)ccc31)[C@H](C(=O)Nc1nc3ccccc3s1)[C@H]1C(=O)O[C@H](c3ccccc3)[C@H](c3ccccc3)N1[C@@H]2c1ccc(O)cc1 ... -0.123
C=CCN1C(=O)[C@]2(CCS(=O)(=O)c3ccccc3)N=C(c3ccc(OCCCO)cc3)O[C@@H]2c2ccccc21 ... 1.76

For every item in the list below, what is its measured z-score?
1. COc1cc(NN2C(C(O)c3ccco3)C=CC3C(=O)N(C)C(=O)C32)cc(OC)c1OC (configuration not stated)
2. CCCNC(=O)[C@@]1(Sc2ccc(C)cc2)CC(=O)N(C2Cc3ccccc3C2)[C@@H]1c1ccc(CO)cc1I

1: -0.808; 2: -0.303

# map each compound to its z-score
1. CC(C)c1ccc(NN2C(C(O)c3ccc(F)cc3)C=CC3C(=O)N(c4ccccc4)C(=O)C32)cc1 (configuration not stated)
2. C=CCN1Cc2ccccc2[C@@H]2OC(c3ccc(OCCCO)cc3)=N[C@]2(CC=C)C1=O

-1.05
-0.218

====

- PROTOCOL DETAILS: probe aXIP binding to arrayed compounds – biochemical, NeuroSMM set, 635/667 nm fluorescence, primary screen (AID 1119);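 note: probe is the protein aXip251-270 applied at 1 µg/mL to compound-printed slides; binding of probe to printed compounds measured as 667 nm fluorescence plus signal to noise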
- RUN PARAMETERS: small-molecule microarray, higher = more signal, called active from +8 up or from −8 down
Label not fulfilled if composite Z-score falls below -0.2; label fulfilled in every other case.

CCCC[C@@H](O)C1=C(COc2ccccc2)C[C@H]2C(=O)N(Cc3ccccc3)C(=O)[C@H]2[C@H]1CO ... not fulfilled
C=CCC(OC(C)=O)[C@@H]1[C@@H](N(Cc2cccc3ccccc23)C(=O)Cc2ccc(OC)cc2)c2cc(OCCCO)ccc2N1C(=O)c1ccc(-c2ccccc2)cc1 (stereo partly specified) ... fulfilled
CCCN1C(=O)[C@]2(Cc3ccccc31)N=C(c1ccc(OCCCO)cc1)O[C@@H]2c1ccccc1 ... fulfilled

Check this compound for composite Z-score at or above -0.2: O=C1O[C@@H](c2ccccc2)[C@@H](c2ccccc2)N2[C@@H](c3ccc(OCCO)cc3)[C@]3(C(=O)Nc4ccc(C#CC5=CCCCC5)cc43)[C@@H](C(=O)NC[C@H](O)c3ccccc3)[C@H]12
fulfilled

Could you tell me if the measured composite Z-score of CO[C@H]1O[C@H](CO)[C@@H](OC(=O)Nc2ccc(Br)cc2)[C@@H]2OC(=O)[C@@H](Cc3ccccc3)C/C=C/C[C@H](Cc3ccccc3)C(=O)O[C@@H]12 reaches -0.2 or more?
not fulfilled

Evaluate CC(=O)NCCCC[C@@H]1NC(=O)[C@@H]2C[C@H](C(=O)NCCCCCN)[C@H](c3ccc(O)cc3)N2C1=O : composite Z-score at minimum -0.2?
fulfilled

====

- Test system: glycogen synthase kinase-3 (GSK3A per assay name; protocol says GSK3B)
- PROTOCOL DETAILS: compounds binding glycogen synthase kinase-3 – biochemical, small-molecule microarray, 635 nm fluorescence, GSK3A, primary screen (AID 1103); note: the record names both GSK3A and GSK3B
- RUN PARAMETERS: fluorescence 635 nm, higher = more signal
EXPERIMENTAL READOUT: composite z-score
Give bare numbers.

Known composite z-score results, listed for orientation:
CCOC(=O)C[C@H]1[C@H](OC(=O)c2ccc(-c3ccccc3)cc2)[C@@H](NC(=O)CC(C)C)c2cc(OCCCO)ccc2N1C(=O)c1ccc2ccccc2n1 ... 0.0685
Cc1ccc(S[C@]2(C(=O)NC(C)C)CC(=O)N(Cc3cc(C(F)(F)F)cc(C(F)(F)F)c3)[C@@H]2c2ccc(CO)cc2)cc1 ... -1.27
CC(c1ccccc1)C(O)C1C=CC2C(=O)N(C)C(=O)C2N1Nc1ccccc1 (stereo not drawn) ... 0.515
C=CC[C@@]1(C(=O)NCCCOC)N=C(c2ccc(OCCCO)cc2)O[C@@H]1c1ccccc1N=[N+]=[N-] ... 0.595
CC[C@@H]1O[Si](C(C)C)(C(C)C)c2c1cc(-c1cc(C)c(OC)c(C)c1)nc2-c1ccc(Oc2ccccc2)cc1 ... -0.732
COC(=O)C1=CC(CCCO)=CC(c2cccs2)N(C)C=C1C(=O)OC (stereo not drawn) ... -1.39
CC(C)C(CO)N1C(=O)[C@@H]2[C@H]3C(=O)OCC=C[C@H]3OC23C=CCN(c2ccc(Cl)cc2)C(=O)[C@@H]13 (stereo partly drawn) ... -0.889

// moving on: another record for composite z-score
composite z-score of CC(CO)N1C(=O)[C@]2(C)C3C(=O)OCCC/C=C\[C@H]3OC23C=CCN(c2ccc(Cl)cc2)C(=O)[C@@H]13 (stereo partly drawn) on glycogen synthase kinase-3 (GSK3A per assay name; protocol says GSK3B)?
-0.558

====

- PROTOCOL DETAILS: growth of efflux-deficient E. coli DRC39 – strain DRC39, OD650, 48 h, E. coli filamentation inducers, primary screen (AID 1179);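 note: screen aims at cell division blockers that make cells filament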
- RUN PARAMETERS: E. coli DRC39 delta-acrAB growth, higher = more signal, called active from +8 up or from −8 down
Provide the reported z-score of each item.
Give bare numbers.

Please give z-score, item by item, for the list that follows.
1. CC[C@@H]1C=C(C(=O)O)[C@H](c2ccccc2)N1S(=O)(=O)c1ccc(C)cc1
2. CCC1=C2CN(Cc3ccccc3)[C@@H](C(=O)Cc3ccccc3)C2C=CCC1 (stereo not given in full)
3. COc1cc2c(cc1O)C(c1cccs1)N(Cc1cc3c(cc1Br)OCO3)CC2 (stereo not given)
4. Cc1ccc(S[C@]2(C(=O)NCc3ccccc3)CC(=O)N(C3CCCCC3)[C@@H]2c2ccc(CO)cc2I)cc1
5. CCCNC(=O)[C@@]1(C)c2ccccc2C(=O)N(c2ccc(C)cn2)[C@H]1c1ccc(CO)cc1

1: -0.135; 2: -0.0333; 3: -1; 4: 0.323; 5: -0.586
